Target desc: von Hippel-Lindau disease tumor suppressor/Methylosome protein WDR77 (Homo sapiens, UniProt Q9BQA1+P40337)
Sequence (P40337 whole entry, looked up): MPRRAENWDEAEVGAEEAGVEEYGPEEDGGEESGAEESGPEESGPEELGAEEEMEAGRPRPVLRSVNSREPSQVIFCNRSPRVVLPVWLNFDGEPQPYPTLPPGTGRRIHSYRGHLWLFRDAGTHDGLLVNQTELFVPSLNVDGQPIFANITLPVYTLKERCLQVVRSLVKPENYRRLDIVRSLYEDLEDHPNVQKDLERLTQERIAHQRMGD
Sequence (Q9BQA1 whole entry, looked up): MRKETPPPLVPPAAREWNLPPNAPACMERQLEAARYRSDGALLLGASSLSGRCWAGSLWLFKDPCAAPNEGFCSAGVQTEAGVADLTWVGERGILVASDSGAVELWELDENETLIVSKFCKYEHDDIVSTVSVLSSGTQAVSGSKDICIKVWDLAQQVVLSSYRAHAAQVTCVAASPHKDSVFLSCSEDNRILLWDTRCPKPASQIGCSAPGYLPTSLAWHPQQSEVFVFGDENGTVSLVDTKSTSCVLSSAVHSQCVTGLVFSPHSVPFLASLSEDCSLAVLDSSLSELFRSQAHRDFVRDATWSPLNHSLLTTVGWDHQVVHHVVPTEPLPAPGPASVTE
Test details: PROTAC activity at MEP50/VHL in human MDA-MB-468 cells assessed as relative protein level at 5 uM measured after 24 hrs by Western blot analysis
Assay type: cell-based
Active and inactive are the calls of the source. No cut-off for these calls is given here.
Write down one outcome, taken from active, inactive

Before answering, review these 2 worked examples.
| Smiles entry | Cat |
| --- | --- |
| Cc1ncsc1-c1ccc([C@H](CC(=O)NCC(=O)N2CCC(Nc3cc(C(=O)NC[C@H](O)CN4CCc5ccccc5C4)ncn3)CC2)NC(=O)[C@@H]2C[C@@H](O)CN2C(=O)[C@@H](NC(=O)C2(F)CC2)C(C)(C)C)cc1 | active |
| Cc1ncsc1-c1ccc(CNC(=O)[C@@H]2C[C@@H](O)CN2C(=O)[C@@H](NC(=O)C2(F)CC2)C(C)(C)C)c(OCC(=O)NCCOCCOCCC(=O)N2CCC(Nc3cc(C(=O)NC[C@H](O)CN4CCc5ccccc5C4)ncn3)CC2)c1 | inactive |

Query string: Query: recorded result category for Cc1ncsc1-c1ccc(CNC(=O)[C@@H]2C[C@@H](O)CN2C(=O)[C@@H](NC(=O)C2(F)CC2)C(C)(C)C)c(OCC(=O)NCC(=O)N2CCC(Nc3cc(C(=O)NC[C@H](O)CN4CCc5ccccc5C4)ncn3)CC2)c1 in this test
Result string: active

Query string: Call for entry Cc1ncsc1-c1ccc([C@H](CC(=O)NCCCC(=O)N2CCC(Nc3cc(C(=O)NC[C@H](O)CN4CCc5ccccc5C4)ncn3)CC2)NC(=O)[C@@H]2C[C@@H](O)CN2C(=O)[C@@H](NC(=O)C2(F)CC2)C(C)(C)C)cc1 :
Result string: active

---

Target desc: von Hippel-Lindau disease tumor suppressor/Methylosome protein WDR77 (Homo sapiens, UniProt Q9BQA1+P40337)
Test details: PROTAC activity at MEP50/VHL in human MDA-MB-468 cells assessed as relative protein level at 0.5 uM measured after 24 hrs by Western blot analysis
Type: cell-based
Calls of active or inactive are those of the source. The calls are words filed in the database; no cut-off is given here.
Return exactly one item of t for active, f for inactive

These solved cases illustrate the format of a correct answer.
| Smiles entry | Cat |
| --- | --- |
| Cc1ncsc1-c1ccc([C@H](CC(=O)NCCOCCOCCC(=O)N2CCC(Nc3cc(C(=O)NC[C@H](O)CN4CCc5ccccc5C4)ncn3)CC2)NC(=O)[C@@H]2C[C@@H](O)CN2C(=O)[C@@H](NC(=O)C2(F)CC2)C(C)(C)C)cc1 | t |
| Cc1ncsc1-c1ccc([C@H](CC(=O)NCCOCCOCCOCCC(=O)N2CCC(Nc3cc(C(=O)NC[C@H](O)CN4CCc5ccccc5C4)ncn3)CC2)NC(=O)[C@@H]2C[C@@H](O)CN2C(=O)[C@@H](NC(=O)C2(F)CC2)C(C)(C)C)cc1 | t |
| Cc1ncsc1-c1ccc([C@H](C)NC(=O)[C@@H]2C[C@@H](O)CN2C(=O)[C@@H](NC(=O)COCCOCCOCCOCCOCC(=O)N2CCC(Nc3cc(C(=O)NC[C@H](O)CN4CCc5ccccc5C4)ncn3)CC2)C(C)(C)C)cc1 | t |

Query string: Each compound tested received a call. Report the one for Cc1ncsc1-c1ccc([C@H](CC(=O)NCCCCC(=O)N2CCC(Nc3cc(C(=O)NC[C@H](O)CN4CCc5ccccc5C4)ncn3)CC2)NC(=O)[C@@H]2C[C@@H](O)CN2C(=O)[C@@H](NC(=O)C2(F)CC2)C(C)(C)C)cc1 .
Result string: t

Query string: Which result was noted for this compound in the test: Cc1ncsc1-c1ccc(CNC(=O)[C@@H]2C[C@@H](O)CN2C(=O)[C@@H](NC(=O)C2(F)CC2)C(C)(C)C)c(OCC(=O)NCCOCCOCCOCCOCCOCCC(=O)N2CCC(Nc3cc(C(=O)NC[C@H](O)CN4CCc5ccccc5C4)ncn3)CC2)c1
Result string: f

Query string: Would you mind telling me which call this test gave Cc1ncsc1-c1ccc(CNC(=O)[C@@H]2C[C@@H](O)CN2C(=O)[C@@H](NC(=O)C2(F)CC2)C(C)(C)C)c(OCC(=O)NCCCCCC(=O)N2CCC(Nc3cc(C(=O)NC[C@H](O)CN4CCc5ccccc5C4)ncn3)CC2)c1 ?
Result string: t

---

Target desc: von Hippel-Lindau disease tumor suppressor/Protein arginine N-methyltransferase 5 (Homo sapiens, UniProt O14744+P40337)
Sequence (O14744 whole entry, looked up): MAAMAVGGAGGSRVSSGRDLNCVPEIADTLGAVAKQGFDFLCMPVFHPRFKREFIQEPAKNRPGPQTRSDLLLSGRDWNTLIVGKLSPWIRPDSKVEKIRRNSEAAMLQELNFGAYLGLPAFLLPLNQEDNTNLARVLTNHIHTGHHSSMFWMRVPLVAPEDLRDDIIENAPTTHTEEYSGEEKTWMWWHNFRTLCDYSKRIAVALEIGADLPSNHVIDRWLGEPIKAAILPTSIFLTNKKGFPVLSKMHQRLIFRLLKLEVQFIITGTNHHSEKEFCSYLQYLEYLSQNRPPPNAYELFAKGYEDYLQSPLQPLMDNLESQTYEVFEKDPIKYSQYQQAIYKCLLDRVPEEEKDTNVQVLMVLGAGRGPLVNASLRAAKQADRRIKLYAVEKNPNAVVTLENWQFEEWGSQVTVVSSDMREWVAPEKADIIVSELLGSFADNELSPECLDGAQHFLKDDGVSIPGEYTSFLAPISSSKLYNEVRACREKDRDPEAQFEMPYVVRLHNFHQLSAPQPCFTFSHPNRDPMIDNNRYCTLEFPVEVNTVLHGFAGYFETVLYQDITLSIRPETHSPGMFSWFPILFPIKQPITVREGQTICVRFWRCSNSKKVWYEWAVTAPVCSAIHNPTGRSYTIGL
Sequence (P40337 whole entry, looked up): as the sequence (P40337 whole entry, looked up) above
Test details: PROTAC activity at PRMT5/VHL in human MDA-MB-468 cells assessed as relative protein level at 5 uM measured after 24 hrs by Western blot analysis
Format: cell-based
Calls of active or inactive are those of the source. The calls are words filed in the database; no cut-off is given here.
Classes to choose from: active, inactive

| Smiles entry | Cat |
| --- | --- |
| Cc1ncsc1-c1ccc([C@H](CC(=O)NCCCCC(=O)N2CCC(Nc3cc(C(=O)NC[C@H](O)CN4CCc5ccccc5C4)ncn3)CC2)NC(=O)[C@@H]2C[C@@H](O)CN2C(=O)[C@@H](NC(=O)C2(F)CC2)C(C)(C)C)cc1 | active |
| Cc1ncsc1-c1ccc(CNC(=O)[C@@H]2C[C@@H](O)CN2C(=O)[C@@H](NC(=O)C2(F)CC2)C(C)(C)C)c(OCC(=O)NCCCC(=O)N2CCC(Nc3cc(C(=O)NC[C@H](O)CN4CCc5ccccc5C4)ncn3)CC2)c1 | active |
| Cc1ncsc1-c1ccc([C@H](CC(=O)NCCOCCOCCOCCOCCC(=O)N2CCC(Nc3cc(C(=O)NC[C@H](O)CN4CCc5ccccc5C4)ncn3)CC2)NC(=O)[C@@H]2C[C@@H](O)CN2C(=O)[C@@H](NC(=O)C2(F)CC2)C(C)(C)C)cc1 | active |

Query string: GET /call?item= Cc1ncsc1-c1ccc([C@H](CC(=O)N2CCC(Nc3cc(C(=O)NC[C@H](O)CN4CCc5ccccc5C4)ncn3)CC2)NC(=O)[C@@H]2C[C@@H](O)CN2C(=O)[C@@H](NC(=O)C2(F)CC2)C(C)(C)C)cc1 returns the recorded outcome of this test.
Result string: active

Query string: Please let me know the test result on file for Cc1ncsc1-c1ccc([C@H](CC(=O)NCCCC(=O)N2CCC(Nc3cc(C(=O)NC[C@H](O)CN4CCc5ccccc5C4)ncn3)CC2)NC(=O)[C@@H]2C[C@@H](O)CN2C(=O)[C@@H](NC(=O)C2(F)CC2)C(C)(C)C)cc1 .
Result string: active

Query string: Which result was noted for this molecule in the test: Cc1ncsc1-c1ccc([C@H](CC(=O)NCCCCCCCC(=O)N2CCC(Nc3cc(C(=O)NC[C@H](O)CN4CCc5ccccc5C4)ncn3)CC2)NC(=O)[C@@H]2C[C@@H](O)CN2C(=O)[C@@H](NC(=O)C2(F)CC2)C(C)(C)C)cc1
Result string: active

Query string: Write down the call the test reported for this molecule. Item: Cc1ncsc1-c1ccc(CNC(=O)[C@@H]2C[C@@H](O)CN2C(=O)[C@@H](NC(=O)C2(F)CC2)C(C)(C)C)c(OCC(=O)NCCOCCOCCOCCOCCC(=O)N2CCC(Nc3cc(C(=O)NC[C@H](O)CN4CCc5ccccc5C4)ncn3)CC2)c1
Result string: inactive

Query string: Returns: the outcome recorded for Cc1ncsc1-c1ccc(CNC(=O)[C@@H]2C[C@@H](O)CN2C(=O)[C@@H](NC(=O)C2(F)CC2)C(C)(C)C)c(OCC(=O)NCC(=O)N2CCC(Nc3cc(C(=O)NC[C@H](O)CN4CCc5ccccc5C4)ncn3)CC2)c1 in this assay.
Result string: active

---

Target desc: von Hippel-Lindau disease tumor suppressor/Protein arginine N-methyltransferase 5 (Homo sapiens, UniProt O14744+P40337)
Test details: PROTAC activity at […]/VHL in human MDA-MB-468 cells assessed as relative protein level at 0.5 uM measured after 24 hrs by Western blot analysis
Format: cell-based
Calls of active or inactive are those of the source. No cut-off for these calls is given here.

| Smiles entry | Activity |
| --- | --- |
| Cc1ncsc1-c1ccc(CNC(=O)[C@@H]2C[C@@H](O)CN2C(=O)[C@@H](NC(=O)C2(F)CC2)C(C)(C)C)c(OCC(=O)NCCOCCC(=O)N2CCC(Nc3cc(C(=O)NC[C@H](O)CN4CCc5ccccc5C4)ncn3)CC2)c1 | Active |
| Cc1ncsc1-c1ccc([C@H](CC(=O)NCCCCCCCC(=O)N2CCC(Nc3cc(C(=O)NC[C@H](O)CN4CCc5ccccc5C4)ncn3)CC2)NC(=O)[C@@H]2C[C@@H](O)CN2C(=O)[C@@H](NC(=O)C2(F)CC2)C(C)(C)C)cc1 | Active |

---

Target desc: von Hippel-Lindau disease tumor suppressor/Protein arginine N-methyltransferase 5 (Homo sapiens, UniProt O14744+P40337)
Test details: PROTAC activity at PRMT5/VHL in human MDA-MB-468 cells assessed as relative protein level at 5 uM measured after 24 hrs by Western blot analysis
Assay type: cell-based
Calls of active or inactive are those of the source. The rule behind the calls is not given here.
Could you please pick one outcome from this set? True = active, False = inactive

Solved cases below.
| Smiles entry | Cat |
| --- | --- |
| Cc1ncsc1-c1ccc([C@H](CC(=O)NCCC(=O)N2CCC(Nc3cc(C(=O)NC[C@H](O)CN4CCc5ccccc5C4)ncn3)CC2)NC(=O)[C@@H]2C[C@@H](O)CN2C(=O)[C@@H](NC(=O)C2(F)CC2)C(C)(C)C)cc1 | True |
| Cc1ncsc1-c1ccc(CNC(=O)[C@@H]2C[C@@H](O)CN2C(=O)[C@@H](NC(=O)C2(F)CC2)C(C)(C)C)c(OCC(=O)NCCOCCOCCC(=O)N2CCC(Nc3cc(C(=O)NC[C@H](O)CN4CCc5ccccc5C4)ncn3)CC2)c1 | False |
| Cc1ncsc1-c1ccc(CNC(=O)[C@@H]2C[C@@H](O)CN2C(=O)[C@@H](NC(=O)C2(F)CC2)C(C)(C)C)c(OCC(=O)NCCOCCC(=O)N2CCC(Nc3cc(C(=O)NC[C@H](O)CN4CCc5ccccc5C4)ncn3)CC2)c1 | True |

Query string: What is the recorded call for this compound in the test? Cc1ncsc1-c1ccc([C@H](CC(=O)NCCOCCOCCOCCC(=O)N2CCC(Nc3cc(C(=O)NC[C@H](O)CN4CCc5ccccc5C4)ncn3)CC2)NC(=O)[C@@H]2C[C@@H](O)CN2C(=O)[C@@H](NC(=O)C2(F)CC2)C(C)(C)C)cc1
Result string: True

Values from ChEMBL document CHEMBL6109159
